- Tested on: HOP-92 NSCLC
- Procedure Text: NCI-60 one-dose screen, 48 h
- Assay Conditions: 10 µM
Compounds without any hit were thinned out: in the full panel of roughly 83,000, 20% have a hit. The source made the active and inactive calls. How the source made its calls: active means growth percent below 10; inactive means the rest.
Labels: active, inactive

Compound	Label Value
CCOc1ccc(/C=N/NC(=O)Cn2nc(Cc3ccc([N+](=O)[O-])cc3)c3onc(C)c3c2=O)cc1	active
Cc1cc(C)nc(SCC(=O)Nc2ccc(S(N)(=O)=O)cc2)n1	inactive
Cc1noc2c(Cc3ccc([N+](=O)[O-])cc3)nn(CC(=O)N/N=C/c3ccc(Br)cc3)c(=O)c12	inactive
O=C(CSc1nnc(-c2ccc3nc(-c4ccc(Cl)cc4)[nH]c3c2)o1)Nc1ccc(Cl)cc1	active
COc1cnc2c(c1)C(=O)c1c-2n(CCCNCCO)c(=O)c2cc(OC)c(OC)cc12	inactive
O=C(c1ccc(Cl)cc1)C1[C@H](c2ccc(Br)cc2)[C@@H](c2ccccc2)NC12C(=O)Nc1ccccc12 (stereo partly drawn)	active
CCCn1c(=O)c2[nH]c(-c3ccc(OCc4nc5ccc(C#N)cc5[nH]4)cc3)nc2n(CCC)c1=O	inactive
O=C(Nc1cccc([N+](=O)[O-])c1)Nc1cccc([N+](=O)[O-])c1	inactive
COc1cc(/C=C/C(=O)c2cc(OC)c(OC)c(OC)c2)ccc1Oc1nc(Nc2ccc(F)cc2)nc(N(C)C)n1	active
O=C(CSc1nnc(-c2c[nH]c3ccccc23)n1-c1ccccc1)c1ccccc1	inactive
COc1cc(/C=C/C(=O)c2ccc(F)cc2)ccc1Oc1nc(Nc2ccc(F)cc2)nc(N(C)C)n1	inactive
CCOC(=O)C1=C(N)N(c2ccccc2)C2=C(C(=O)CC(C)(C)C2)C1c1ccccc1OC (stereo not drawn)	inactive
CC(C)CCSc1nc(NC2CC2)c(C#N)c(-c2ccc(C(C)C)cc2)n1	inactive
O=C(c1ccccc1)n1ccc(-c2cc3cc(Br)ccc3oc2=O)n1	inactive
CN1CCc2c(sc3ncnc(N/N=C/c4ccc5ccccc5c4)c23)C1	inactive
Cc1ccc(C(C)C)cc1NC(=O)c1ccccc1O	active
O=C(Nc1nc2ccccc2s1)c1ccc(Br)cc1	inactive
O=C(CNc1nc(-c2ccccc2)cs1)Nc1ccc(Br)cc1	active
COc1ccc(NC(=O)CSc2nnc(-c3ccc4nc(-c5ccc(Cl)cc5)[nH]c4c3)o2)cc1	inactive
Nc1nc(Nc2ccc(Cl)cc2)nn1Cc1cccc(Br)c1	active
Nc1cccnc1/C=N/NC(=S)NCCNC(=O)c1ccc(-n2nc(-c3ccccc3O)nc2-c2ccccc2O)cc1	active
CC1(C)CC[C@]2(C(=O)Nc3ccccc3)CC[C@]3(C)C(=CC[C@@H]4[C@@]5(C)CC[C@H](N)C(C)(C)[C@@H]5CC[C@]43C)[C@H]2C1	inactive
CC(=O)Nc1nc(-c2ccc(N3CCN(C)CC3)c(NS(=O)(=O)c3cccc4c(N(C)C)cccc34)c2)cs1	inactive

###

- Tested on: ACHN renal
- Procedure Text: NCI-60 one-dose screen, 48 h (100 = growth as untreated, 0 = no growth, -100 = all killed)
- Assay Conditions: 10 µM
Compounds without any hit were thinned out: in the full panel of roughly 83,000, 20% have a hit.
// values below are reported growth
Measured Property: growth (%)

Molecule	Measured Property	Reported Result
O=C(CSc1ccc(-c2ccc(Cl)cc2)nn1)Nc1ccc(Cl)c(C(F)(F)F)c1	growth	79.3
CC1(C)CC[C@]2(C(=O)Nc3ccccc3)CC[C@]3(C)C(=CC[C@@H]4[C@@]5(C)CC[C@H](N)C(C)(C)[C@@H]5CC[C@]43C)[C@H]2C1	growth	90.3
Clc1ccc(/C=N/Nc2ncnc3sc4c(c23)CCN(Cc2ccccc2)C4)cc1	growth	27.4
[2H]C([2H])([2H])Oc1ccc2ncc(C#Cc3cncc(C(=O)Nc4ccc(CN5CCN(C)CC5)c(C(F)(F)F)c4)c3)n2n1	growth	-88.9
O=C(Cc1ccc2c(c1)CN(C1CCC(=O)NC1=O)C2=O)NCc1cccc2ccccc12 (centres undefined)	growth	-19
COc1ccc2[nH]c(=O)c(CSc3ccc(Nc4nccc(-c5ccc(Cl)cc5)n4)cc3)cc2c1	growth	90.3
CCCCCc1ccc(S(=O)(=O)N(C(C)=O)c2cc(-c3csc(N(C)C(C)=O)n3)ccc2N2CCN(C)CC2)cc1	growth	30.1
Cc1ccc(-c2nc3ccc(C(=O)N=Nc4c(O)[nH]c5ccc(Br)cc45)cc3[nH]2)cc1	growth	101
Cc1ccc(C(=O)NNC(=O)CSc2nc3ccccc3c(=O)[nH]2)cc1	growth	107
